System: MS2 coat protein
Assay: apparent KD of MS2 coat protein; designed switch direction (-1 OFF switch, 1 ON switch): -1; higher = weaker reporter binding
Conditions: input ligand: none
label 1 means recorded apparent KD of MS2 coat protein is 30 nM or above; label 0 means it is below 30 nM.

Worked cases, answers included:
Exam item: Decide: is the reported value of apparent KD of MS2 coat protein for UACAUGAGGAUCACCCAUGUUUUGUCGUGUAUGGUAUUUAUCUAGGAUAUCAAUGUAGUUAUUUAUGAGAAGGAGAAUAUUAAU [JMF's solution 41] (Eterna round: R96, puzzle: Exclusion NG 3) equal to or greater than 30 nM?
Marked response: label 1

Exam item: Hello, I need to know if GGGCCCGGAGGAUAUACAAUCCCGGGUUGAAAGGCCCGGGUACAUGAGGAUCACCCAUGUAGAAGGCCGGGCCC [-42.3, -39.6 kcal A 24%, 5c bis,0] (Eterna round: R97, puzzle: Exclusion 2) has measured apparent KD of MS2 coat protein not below 30 nM. Thanks!
Marked response: label 0

Exam item: Hi team, for AUAAAACAUGAGGAUCACCCAUGUGAGGAUAUACGACUCCAACCUAACAGCUUGGACCGUAGAAGGCACAAGGG [Exclusion 1 (MOD3.2 Esqu)] (Eterna round: R97, puzzle: Exclusion 1) , is the recorded apparent KD of MS2 coat protein at or above 30 nM?
Marked response: label 1

***
Exam item: Does apparent KD of MS2 coat protein meet or surpass 30 nM for GGGUAGGGAGGAUAUCCAAUAUAUGACAUGAGGAUCACCCAUGUUUCCACUCGUACCUCCGGAGAAGGCCCAUCCC [Ex5 #14] (Eterna round: R97, puzzle: Exclusion 5) ?
Marked response: label 0

Exam item: Could you please find out whether CCACGACAUGAGGAUCACCCAUGUGAGGAUAUGGCCUGAAAAGCGUGAGCAGUUUGUAUCAGAAGGCGCGUGGG [salish99_ex1_r4_065] (Eterna round: R97, puzzle: Exclusion 1) has apparent KD of MS2 coat protein that meets 30 nM or exceeds it?
Marked response: label 1

Exam item: Decide: apparent KD of MS2 coat protein of GUGUAACAUGAGGAUCACCCAUGUCAGGAUAUCCGCUUUAACUAAAUAAAUAAAUAGUGGAGAAGGGACAGCGC [-13.9, -13.37 kcal, 36% A] (Eterna round: R97, puzzle: Exclusion 1) >= 30 nM?
Marked response: label 1

Exam item: Tell me whether apparent KD of MS2 coat protein is at least 30 nM here: ACCUCACAUGAGGAUCACCCAUGUCAGGAUAUCUGAUGUAGUCCCGUUCCGGACGCUGAGAGAAGGGACGUUGA [EX1 #39] (Eterna round: R97, puzzle: Exclusion 1)
Marked response: label 1

Exam item: Could you please find out whether AUCAGCUCGUCAGGAUAUACAUGAGGAUCACCCAUGUGGUCAUUAGCAGCUUCGGCUGCAUUAAUGUAGAAGGGACGAGCUGAU [ENG2/8-B2] (Eterna round: R96, puzzle: Exclusion NG 2) has apparent KD of MS2 coat protein that meets 30 nM or exceeds it?
Marked response: label 1

Exam item: I'd appreciate it if you could say whether CAUUGUUAUCGAGGAUAUCGUAUUGAGAUUCUACGAGAAGGCGGACUAAACAUGAGGAUCACCCAUGUGAGACGGAUGCUUGGG [Ex NG1 #32] (Eterna round: R96, puzzle: Exclusion NG 1) has apparent KD of MS2 coat protein at least equal to 30 nM.
Marked response: label 0

Numbers sourced from the supplement of paper PMC9170038.
